Origin of the recorded values: ChEMBL document CHEMBL3813699

# TEST_METHOD_NOTES: Aqueous solubility of compound in media after 16 hrs
# Type: physicochemical
In this section we review reported solubility at 16 h values for a set of compounds.

Please review the following examples before continuing.
STRUCTURE_NOTATION: Oc1ccc(Br)c2nc3cc(Cl)c(Cl)cc3nc12
RECORDED_RESULT: 200 µM
--
STRUCTURE_NOTATION: Oc1ccc(I)c2nc3cc(Cl)c(Cl)cc3nc12
RECORDED_RESULT: 200 µM

Below: the item to evaluate.
Report measured solubility at 16 h; entry is Oc1c(Br)cc(I)c2nc3cc(Cl)c(Cl)cc3nc12
200 µM

* * *

# TEST_METHOD_NOTES: Induction of hemolysis in human RBC at 200 uM incubated for 1 hr
# Format: cell-based, Erythrocyte
# ASSAY_CONDITIONS: red blood cells, read-out: Activity
Quick reference: hemolysis at 1 h, 200 µM of the listed items.

MOLECULE: Oc1c(Br)cc(Br)c2nccnc12
QUANTITY_MEASURED: hemolysis at 1 h, 200 µM
RECORDED_RESULT: 1.8%
//
MOLECULE: Oc1c(Br)cc(Br)c2nc3cc4ccccc4cc3nc12
QUANTITY_MEASURED: hemolysis at 1 h, 200 µM
RECORDED_RESULT: ≤ 1%
//
MOLECULE: O=C(O)CN(CCN(CC(=O)O)CC(=O)O)CC(=O)O [EDETIC ACID]
QUANTITY_MEASURED: hemolysis at 1 h, 200 µM
RECORDED_RESULT: 3%
//
MOLECULE: Oc1c(Cl)cc(Br)c2nc3ccccc3nc12
QUANTITY_MEASURED: hemolysis at 1 h, 200 µM
RECORDED_RESULT: ≤ 1%
//
MOLECULE: Oc1ccc(Br)c2nc3cc(Br)c(Br)cc3nc12
QUANTITY_MEASURED: hemolysis at 1 h, 200 µM
RECORDED_RESULT: ≤ 1%
//
MOLECULE: Oc1c(Cl)cc(I)c2nc3ccccc3nc12
QUANTITY_MEASURED: hemolysis at 1 h, 200 µM
RECORDED_RESULT: 5.1%

Answer with the recorded hemolysis at 1 h, 200 µM for the molecule listed here: Oc1c(Br)cc(Br)c2nc3cc(Br)c(Br)cc3nc12
≤ 1%

For Oc1c(Cl)cc(Cl)c2nc3ccccc3nc12 , write its hemolysis at 1 h, 200 µM.
≤ 1%

Give a short answer stating reported hemolysis at 1 h, 200 µM for Cc1nc2c(Br)cc(Br)c(O)c2nc1C .
≤ 1%

Please list hemolysis at 1 h, 200 µM recorded for the molecule Oc1c(I)cc(I)c2nccnc12
≤ 1%

Name the recorded hemolysis at 1 h, 200 µM of the item N#CC(C#N)=NNc1cccc(Cl)c1 [CARBONYL CYANIDE M-CHLOROPHENYLHYDRAZONE] in your answer.
3.5%

Annotate the molecule Oc1c(Br)cc(Br)c2nc3cc(Cl)c(Cl)cc3nc12 with its measured hemolysis at 1 h, 200 µM.
≤ 1%

Using the record for Oc1c(Br)cc(Br)c2nc3ccccc3nc12 , state its measured hemolysis at 1 h, 200 µM.
≤ 1%

* * *

// reported MBEC per item
# System: Staphylococcus aureus
# TEST_METHOD_NOTES: Antibiofilm activity against methicillin-resistant Staphylococcus aureus BAA-1707 assessed as biofilm eradication incubated for 24 hrs by CBD assay
# Assay type: functional
Provide only the numeric value, understood in µM.

For orientation, consider the following solved cases.
STRUCTURE_NOTATION: Oc1c(Br)cc(Br)c2nc3ccc(Br)cc3nc12
UOM: µM
MBEC: 12.5
--
STRUCTURE_NOTATION: CCCCc1cc(Br)c(O)c2nc3ccccc3nc12
UOM: µM
MBEC: 62.5
--
STRUCTURE_NOTATION: Oc1c(Br)cc(Br)c2nc3cc(Br)c(Br)cc3nc12
UOM: µM
MBEC: 50
--
STRUCTURE_NOTATION: Oc1c(Br)cc(Br)c2nc3ccccc3nc12
UOM: µM
MBEC: 375
--
STRUCTURE_NOTATION: Oc1c(Br)cc(I)c2nc3ccccc3nc12
UOM: µM
MBEC: 93.8

Would you kindly look at the next entry?
Return MBEC (reported value) for this compound: Oc1c(Br)cc(Br)c2nc3cc(Cl)c(Cl)cc3nc12
12.5
